Just for reference, patent US20250228882A1 is where these values come from.

Test: Bidirectional Caco-2 permeability assay
Assay type: in vitro ADME
Settings: human, Caco-2
property_measured: Papp B→A at 90 min (×10⁻⁶ cm/s)
Only the number, expressed in ×10⁻⁶ cm/s, is required.

For orientation, consider the following solved cases.
compound="CCCCC(=O)Nc1ncnn2c([C@]3(C#N)O[C@H](COC(=O)CC4CCCCCC4)[C@@H](OC(=O)[C@@H](N)C(C)(C)C)[C@H]3O)ccc12 [Compound 61]" test_result=0.65
compound="CCCCOC(C)(C)C(=O)Nc1ncnn2c([C@]3(C#N)O[C@H](COC(=O)CC4CCCCC4)[C@@H](OC(=O)[C@@H](N)C(C)(C)C)[C@H]3O)ccc12 [Compound 74]" test_result=0.41
compound="CC(C)[C@H](C)C(=O)Nc1ncnn2c([C@]3(C#N)O[C@H](COC(=O)CC4CCCCC4)[C@@H](OC(=O)[C@@H](N)C(C)(C)C)[C@H]3O)ccc12 [Compound 15]" test_result=1.76
compound="CCOC(C)(C)C(=O)Nc1ncnn2c([C@]3(C#N)O[C@H](COC(=O)CC4CCCCC4)[C@@H](OC(=O)[C@@H](N)C(C)(C)C)[C@H]3O)ccc12 [Compound 7]" test_result=8.41
compound="CCC(CC)C(=O)Nc1ncnn2c([C@]3(C#N)O[C@H](COC(=O)CC4CCCCC4)[C@@H](OC(=O)[C@H](N)C(C)(C)C)[C@H]3O)ccc12 [Compound 69]" test_result=4.38
compound="CCC(CC)C(=O)Nc1ncnn2c([C@]3(C#N)O[C@H](COC(=O)CC4CCC4)[C@@H](OC(=O)[C@@H](N)C(C)(C)C)[C@H]3O)ccc12 [Compound 50]" test_result=8.25
compound="COC(C)(C)C(=O)Nc1ncnn2c([C@]3(C#N)O[C@H](COC(=O)CC4CCCCC4)[C@@H](OC(=O)[C@@H](N)C(C)(C)C)[C@H]3O)ccc12 [Compound 3]" test_result=9.3

Read the next record carefully.
Provide Papp B→A at 90 min value for the following compound: CCC(CC)C(=O)Nc1ncnn2c([C@]3(C#N)O[C@H](COC(=O)CC4CCCCCC4)[C@@H](OC(=O)[C@H](N)C(C)(C)C)[C@H]3O)ccc12 [Compound 77]
1.6
